Assay: Turbidimetric assay - solubility in 10% DMSO:PBS
Type: physicochemical
Conditions: 10% DMSO:phosphate buffered saline, aqueous with cosolvent or surfactant or cyclodextrin, kinetic from dmso stock; turbidimetric assay, 10% DMSO:PBS pH 7.4, 37° C., 2 hours incubation
Attribute Measured: solubility at 2 h

Q: Given the compound CC(C)c1cccc(C(C)C)c1[N+]1=Cc2ccc(OCCO)c[c]2[Pd-2]1([Cl])[P+](CC[P+](c1ccccc1)(c1ccccc1)[Pd-2]1([Cl])[c]2cc(OCCO)ccc2C=[N+]1c1c(C(C)C)cccc1C(C)C)(c1ccccc1)c1ccccc1 (stereo not shown) [BTC5] , write its reported solubility at 2 h.
Result: 13.3 to 26.6 µg/mL

###

Assay: Turbidimetric assay - solubility in 10% DMSO:PBS
Type: physicochemical
Settings: turbidimetric assay, 10% DMSO:PBS pH 7.4, 37° C., 2 hours incubation
Attribute Measured: Solubility in 10% DMSO:PBS at 37° C.

// worked examples, Solubility in 10% DMSO:PBS at 37° C. included
{"columns": ["Compound", "Experimental Result"],
 "data": [
  ["CC(C)c1cccc(C(C)C)c1[N+]1=Cc2cccc[c]2[Pd-2]1([Cl])[P+](CCC[P+](c1ccccc1)(c1ccccc1)[Pd-2]1([Cl])[c]2ccccc2C=[N+]1c1c(C(C)C)cccc1C(C)C)(c1ccccc1)c1ccccc1 (stereo not shown)", "6.12 to 12.25 µg/mL"],
  ["CC(C)c1cccc(C(C)C)c1[N+]1=Cc2cccc[c]2[Pd-2]1([Cl])[P+](C[P+](c1ccccc1)(c1ccccc1)[Pd-2]1([Cl])[c]2ccccc2C=[N+]1c1c(C(C)C)cccc1C(C)C)(c1ccccc1)c1ccccc1 (stereo not shown)", "10.21 to 20.41 µg/mL"]
]}

Each compound below has a reported value. Please supply its Solubility in 10% DMSO:PBS at 37° C..
1. CC(C)c1cccc(C(C)C)c1[N+]1=Cc2cccc[c]2[Pd-2]1([Cl])[P+](CC[P+](c1ccccc1)(c1ccccc1)[Pd-2]1([Cl])[c]2ccccc2C=[N+]1c1c(C(C)C)cccc1C(C)C)(c1ccccc1)c1ccccc1 (stereo not shown)
2. CC(C)c1cccc(C(C)C)c1[N+]1=Cc2cccc[c]2[Pd-2]1([Cl])[P+](c1ccccc1)(c1ccccc1)[c-]1cccc1.CC(C)c1cccc(C(C)C)c1[N+]1=Cc2cccc[c]2[Pd-2]1([Cl])[P+](c1ccccc1)(c1ccccc1)[c-]1cccc1.[Fe+2] (stereo not shown)

Result:
1. 5.98 to 11.97 µg/mL
2. 13.65 to 27.30 µg/mL
